assay: Solubility of the active principles; format: physicochemical
Measurement Label: solubility (µg/mL)

A = Nc1nc2c(ncn2COCCO)c(=O)[nH]1
B = Cc1c(OCC(F)(F)F)ccnc1C[S+]([O-])c1nc2ccccc2[nH]1 (stereo not shown)
C = O=C1CN(/N=C/c2ccc([N+](=O)[O-])o2)C(=O)N1
D = CC(=O)S[C@@H]1CC2=CC(=O)CC[C@]2(C)[C@H]2CC[C@@]3(C)[C@@H](CC[C@@]34CCC(=O)O4)[C@H]12
Could you list the above compounds by solubility, going from the biggest number down? Respond with an ordered listing of the labels, as requested. A, C, B, D
(A: 10000 µg/mL, C: 300 µg/mL, B: 50 µg/mL, D: 20 µg/mL)
